# ASSAY PROTOCOL: AUC in rat at 75 mg/kg, po administered as MBP formulation
# Format: ADME, organism-based
# Parameters: dose 75 mg/kg, route oral
# RUN CONDITIONS: plasma
ENDPOINT NAME: AUC

Query: Read the entry "COC(=O)c1c(Cc2ccc(C(=O)N[C@@H]3[C@@H]4C[C@@H]5C[C@H]3C[C@@](O)(C5)C4)cc2)c(=O)c2cccnc2n1-c1ccccc1" and write its reported AUC.
Response: 252 µg·h/mL

* * *

# ASSAY PROTOCOL: Tmax in rat at 30 mg/kg, po administered as DMSO formulation
# Type: ADME, organism-based
# Parameters: dose 30 mg/kg, route oral
# RUN CONDITIONS: in vivo
ENDPOINT NAME: Tmax (h)
Entry rule: numbers only, all in h.

Query: Recall and state the measured Tmax for "COC(=O)c1c(Cc2ccc(C(=O)N[C@@H]3[C@@H]4C[C@@H]5C[C@H]3C[C@@](O)(C5)C4)cc2)c(=O)c2cccnc2n1-c1ccccc1" .
Response: 4

* * *

# ASSAY PROTOCOL: Mean residence time in rat at 5 mg/kg, iv administered as DMSO formulation
# Assay type: ADME, organism-based
# Design: dose 5 mg/kg, route intravenous
# RUN CONDITIONS: in vivo
ENDPOINT NAME: MRT (h)
Please reply with the bare figure in h and do not write the unit itself.

Query: Return MRT (reported value) for this compound: "COC(=O)c1c(Cc2ccc(C(=O)N[C@@H]3[C@@H]4C[C@@H]5C[C@H]3C[C@@](O)(C5)C4)cc2)c(=O)c2cccnc2n1-c1ccccc1"
Response: 1.8

* * *

# ASSAY PROTOCOL: Mean residence time in C57 mouse at 30 mg/kg, po
# Format: ADME, organism-based
# Set-up: dose 30 mg/kg, route oral
# RUN CONDITIONS: in vivo
Catalogue of compounds with associated MRT
Answer in h, number only, no unit symbol.

Observe how each entry below is paired with its result.
| SMI | MRT, h |
| --- | --- |
| COC(=O)c1c(Cc2ccc(C(=O)N[C@H]3CC[C@H](O)CC3)cc2)c(=O)c2cccnc2n1-c1ccccc1 | 3.45 |
| COC(=O)c1c(Cc2ccc(C(=O)NC3(CO)CC3)cc2)c(=O)c2cccnc2n1-c1ccccc1 | 1.73 |
| COC(=O)c1c(Cc2ccc(C(=O)NC(C)(C)CO)cc2)c(=O)c2cccnc2n1-c1ccccc1 | 2.03 |

Query: Recall and state the measured MRT for "COC(=O)c1c(Cc2ccc(C(=O)NCC(C)(C)O)cc2)c(=O)c2cccnc2n1-c1ccccc1" .
Response: 3.14

Query: For the compound "COC(=O)c1c(Cc2ccc(C(=O)N[C@@H]3[C@@H]4C[C@@H]5C[C@H]3C[C@@](O)(C5)C4)cc2)c(=O)c2cccnc2n1-c1ccccc1" , give its reported MRT.
Response: 2.38

Query: In one line, give reported MRT of the entry "COC(=O)c1c(Cc2ccc(C(=O)N[C@H](CO)C(C)(C)C)cc2)c(=O)c2cccnc2n1-c1ccccc1" .
Response: 1.42

* * *

# ASSAY PROTOCOL: Cmax in C57 mouse at 75 mg/kg, po administered as MBP formulation
# Type: ADME, organism-based
# Design: dose 75 mg/kg, route oral
# RUN CONDITIONS: in vivo
ENDPOINT NAME: Cmax (ng/mL)
All answers are understood in ng/mL, so give the number only.

Query: // Input: "COC(=O)c1c(Cc2ccc(C(=O)N[C@@H]3[C@@H]4C[C@@H]5C[C@H]3C[C@@](O)(C5)C4)cc2)c(=O)c2cccnc2n1-c1ccccc1" . Output its Cmax only.
Response: 18100
